Measurement record for Endoplasmin (Canis lupus familiaris, UniProt P41148); quantity recorded: IC50.

{"columns": ["Compound", "IC50 / µM"],
 "data": [
  ["Nc1ncnc2c1ncn2[C@@H]1O[C@H](COP(=O)(O)OP(=O)(O)O)[C@@H](O)[C@H]1O [ADENOSINE DIPHOSPHATE]", 11.4],
  ["Nc1ncnc2c1ncn2[C@@H]1O[C@H](COP(=O)(O)OP(=O)(O)OP(=O)(O)O)[C@@H](O)[C@H]1O [ADENOSINE TRIPHOSPHATE]", 3.24],
  ["CC(C)c1cc(-c2n[nH]c(=O)n2-c2ccc3c(ccn3C)c2)c(O)cc1O", 0.01]
]}

----------
Target Desc: Heat shock protein HSP 90-beta (Homo sapiens)
Sequence (P08238 whole entry): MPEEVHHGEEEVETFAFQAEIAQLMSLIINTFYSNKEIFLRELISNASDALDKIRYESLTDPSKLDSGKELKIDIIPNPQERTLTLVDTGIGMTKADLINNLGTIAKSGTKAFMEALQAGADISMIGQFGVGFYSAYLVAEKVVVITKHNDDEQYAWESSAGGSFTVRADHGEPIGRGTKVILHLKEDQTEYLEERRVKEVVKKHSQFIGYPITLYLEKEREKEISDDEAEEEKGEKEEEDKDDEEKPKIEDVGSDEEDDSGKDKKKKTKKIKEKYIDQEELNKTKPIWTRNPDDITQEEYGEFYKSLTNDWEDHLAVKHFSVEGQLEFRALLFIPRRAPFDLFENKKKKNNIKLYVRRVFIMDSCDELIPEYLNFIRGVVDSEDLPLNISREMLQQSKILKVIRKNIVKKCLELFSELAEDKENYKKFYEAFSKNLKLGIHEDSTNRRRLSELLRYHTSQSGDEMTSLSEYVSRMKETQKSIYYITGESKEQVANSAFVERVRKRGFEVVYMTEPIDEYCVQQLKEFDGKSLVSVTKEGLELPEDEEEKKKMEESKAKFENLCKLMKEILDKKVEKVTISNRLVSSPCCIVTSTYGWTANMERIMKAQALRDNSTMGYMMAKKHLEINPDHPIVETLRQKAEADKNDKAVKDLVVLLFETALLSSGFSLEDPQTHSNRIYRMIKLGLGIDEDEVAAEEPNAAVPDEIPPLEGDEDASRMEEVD
pIC50: −log10 of the molar value.
Result Type: pIC50

{"columns": ["Compound", "Target Desc", "Meas Value"],
 "data": [
  ["Nc1ncnc2c1ncn2[C@@H]1O[C@H](COP(=O)(O)OP(=O)(O)OP(=O)(O)O)[C@@H](O)[C@H]1O [ADENOSINE TRIPHOSPHATE]", "Heat shock protein HSP 90-beta (Homo sapiens)", 3.05],
  ["Nc1ncnc2c1ncn2[C@@H]1O[C@H](COP(=O)(O)OP(=O)(O)O)[C@@H](O)[C@H]1O [ADENOSINE DIPHOSPHATE]", "Heat shock protein HSP 90-beta (Homo sapiens)", 4.38]
]}

----------
Target Desc: Heat shock protein HSP90 (Homo sapiens) (UniProt P07900+P08238)
Protocol Text: Binding affinity to HSP90 in human SKBR3 cell lysates at 3 nM up to 24 hrs by fluorescence polarization assay
Type: protein assay
Experimental Context: SK-BR-3
The source made the active and inactive calls. The rule behind the calls is not given here.
Outcomes: 1.0 = active, 0.0 = inactive

{"columns": ["Item Smiles", "Group Label"],
 "data": [
  ["Nc1ncnc2c1nc(Sc1cc3c(cc1I)OCO3)n2CCCCCCNC(=S)Nc1ccc(-c2c3ccc(=O)cc-3oc3cc(O)ccc23)c(C(=O)O)c1", 1.0],
  ["CC(C)N(CCCn1c(Sc2cc3c(cc2I)OCO3)nc2c(N)ncnc21)C(=S)Nc1ccc(-c2c3ccc(=O)cc-3oc3cc(O)ccc23)c(C(=O)O)c1", 1.0],
  ["Nc1ncnc2c1nc(Sc1cc3c(cc1I)OCO3)n2CCCNC(=S)Nc1ccc(-c2c3ccc(=O)cc-3oc3cc(O)ccc23)c(C(=O)O)c1", 1.0],
  ["Nc1ncnc2c1nc(Sc1cc3c(cc1I)OCO3)n2CCCCCCCCNC(=S)Nc1ccc(-c2c3ccc(=O)cc-3oc3cc(O)ccc23)c(C(=O)O)c1", 0.0],
  ["Nc1ncnc2c1nc(Sc1cc3c(cc1I)OCO3)n2CCCCNC(=S)Nc1ccc(-c2c3ccc(=O)cc-3oc3cc(O)ccc23)c(C(=O)O)c1", 1.0]
]}

----------
Measurement record for Heat shock protein HSP 90-alpha (Homo sapiens); quantity recorded: IC50.

{"columns": ["Molecule", "IC50 [µM]"],
 "data": [
  ["Nc1ncnc2c1ncn2[C@@H]1O[C@H](COP(=O)(O)OP(=O)(O)OP(=O)(O)O)[C@@H](O)[C@H]1O [ADENOSINE TRIPHOSPHATE]", 861],
  ["Nc1ncnc2c1ncn2[C@@H]1O[C@H](COP(=O)(O)OP(=O)(O)O)[C@@H](O)[C@H]1O [ADENOSINE DIPHOSPHATE]", 59.3]
]}

----------
Measurement record for Heat shock protein 75 kDa, mitochondrial (Homo sapiens, UniProt Q12931); quantity recorded: IC50.

{"columns": ["Molecule", "Units", "IC50"],
 "data": [
  ["Nc1ncnc2c1ncn2[C@@H]1O[C@H](COP(=O)(O)OP(=O)(O)O)[C@@H](O)[C@H]1O [ADENOSINE DIPHOSPHATE]", "µM", 55.6],
  ["C=CCNC1=C2C[C@@H](C)C[C@H](OC)[C@H](O)[C@@H](C)/C=C(\\C)[C@H](OC(N)=O)[C@@H](OC)/C=C\\C=C(/C)C(=O)NC(=CC1=O)C2=O [TANESPIMYCIN]", "µM", 1.5],
  ["Nc1ncnc2c1ncn2[C@@H]1O[C@H](COP(=O)(O)OP(=O)(O)OP(=O)(O)O)[C@@H](O)[C@H]1O [ADENOSINE TRIPHOSPHATE]", "µM", 31.3]
]}

----------
Below: a set of entries, each annotated with reported Kd.
Target Desc: Heat shock protein HSP 90-alpha (Homo sapiens)

{"columns": ["Molecule", "Target Desc", "Kd"],
 "data": [
  ["CO[C@H]1/C=C\\C=C(/C)C(=O)NC2=CC(=O)C(NCCCCNC(=O)Cc3ccc4c(c3)C(C)(C)C3=[N+]4CCC4OC5CCN6C(=C5C=C34)C(C)(C)c3cc(S(=O)(=O)[O-])ccc36)=C(C[C@@H](C)C[C@H](OC)[C@H](O)[C@@H](C)/C=C(\\C)[C@@H]1OC(N)=O)C2=O (some centres not stated)", "Heat shock protein HSP 90-alpha (Homo sapiens)", "0.7 nM"],
  ["CC(C)N(CCCn1c(Sc2cc3c(cc2I)OCO3)nc2c(N)ncnc21)C(=S)Nc1ccc(-c2c3ccc(=O)cc-3oc3cc(O)ccc23)c(C(=O)O)c1", "Heat shock protein HSP 90-alpha (Homo sapiens)", "3.9 nM"]
]}
